Source listed as patent US10093630B2.

# target.under.test: PLA2G7 (Mus musculus)
# Construct: Proteomes (mouse brain membrane fraction or cell lysates); from tissue; host or cells: mouse brain membrane fraction (or cell lysates, not specified)
# Sequence (Q60963 22-440): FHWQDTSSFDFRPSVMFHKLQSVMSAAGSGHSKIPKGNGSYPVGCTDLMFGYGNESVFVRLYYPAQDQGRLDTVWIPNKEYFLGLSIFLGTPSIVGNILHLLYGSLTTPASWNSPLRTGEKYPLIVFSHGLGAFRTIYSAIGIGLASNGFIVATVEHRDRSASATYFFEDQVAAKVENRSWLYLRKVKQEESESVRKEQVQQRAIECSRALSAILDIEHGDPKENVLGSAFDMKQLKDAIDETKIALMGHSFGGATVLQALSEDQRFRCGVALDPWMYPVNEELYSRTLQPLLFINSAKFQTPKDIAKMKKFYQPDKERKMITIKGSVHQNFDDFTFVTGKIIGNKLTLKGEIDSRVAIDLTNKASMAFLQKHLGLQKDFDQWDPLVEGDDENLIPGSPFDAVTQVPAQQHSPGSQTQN
# assay.name: In vitro competitive activity-based protein profiling (gel-based, FP-Rh or HT-01 probe)
# Assay type: biochemical
# study.conditions: 1 μM inhibitor; read-out: % Inhibition at 1 μM, D = PLA2G7
Form field: inhibition at 1 µM (one value per entry).

// known answers, use as guide
structure.notation: O=C(N1CCN(Cc2ccc(Oc3ccccc3)cc2)CC1)n1cccn1
inhibition at 1 µM: < 25%
--
structure.notation: O=C(N1CCN(Cc2ccccc2)CC1)n1cccn1
inhibition at 1 µM: < 25%
--
structure.notation: O=C(N1CCCC1)n1cc(C(F)(F)F)cn1
inhibition at 1 µM: 25 to 75%
--
structure.notation: Cc1cc(N2CCN(C(=O)n3cc(Cl)cn3)CC2)c2ccccc2n1
inhibition at 1 µM: > 75%
--
structure.notation: N#Cc1cnn(C(=O)N2CCN(Cc3ccc(Oc4ccccc4)cc3)CC2)c1
inhibition at 1 µM: > 75%
--
structure.notation: COc1ccccc1N1CCN(C(=O)n2cc(C(F)(F)F)cn2)CC1
inhibition at 1 µM: > 75%
--
structure.notation: O=C(N1CCCCC1)n1cc(C(F)(F)F)cn1
inhibition at 1 µM: > 75%
--
structure.notation: Cc1ccc(N2CCN(C(=O)n3cc(C(F)(F)F)cn3)CC2)cc1
inhibition at 1 µM: > 75%
--
structure.notation: O=C(N1CCN(Cc2nccs2)CC1)n1cc(-c2ccccc2)cn1
inhibition at 1 µM: > 75%
--
structure.notation: Cc1cc(-c2ccccc2)ccc1CN1CCN(C(=O)n2cc(-c3ccccc3)cn2)CC1
inhibition at 1 µM: > 75%

QUERY: Form field: reported inhibition at 1 µM of CS(=O)(=O)N1CCCN(C(=O)n2cc(C#N)cn2)CC1
RESULT: < 25%

QUERY: Item: Cc1cnn(C(=O)N2CCN(Cc3ccc4ccccc4c3)CC2)c1
RESULT: < 25%

QUERY: Item: COc1cccc(N2CCN(C(=O)n3cc(C(F)(F)F)cn3)CC2)c1
RESULT: > 75%

QUERY: Item: O=C(c1cnn(C(=O)N2CCN(Cc3nccs3)CC2)c1)N1CCCCC1
RESULT: > 75%

QUERY: Item: CCN(Cc1cccc(Cl)c1)C(=O)n1cc(C(F)(F)F)cn1
RESULT: < 25%

QUERY: Item: O=C(N1CCN(Cc2cccc(Oc3ccccc3)c2)CC1)n1cc(Cl)cn1
RESULT: < 25%

QUERY: Item: Cc1cnn(C(=O)N2CCN(Cc3ccccc3)CC2)c1
RESULT: < 25%

QUERY: Item: O=C(N1CCN(Cc2cccnc2)CC1)n1cc(-c2ccccc2)cn1
RESULT: > 75%

QUERY: Item: O=C(c1cnn(C(=O)N2CCN(Cc3ccccn3)CC2)c1)N1CCCCC1
RESULT: > 75%
